Each recorded value in this set is attributed to the Immune Epitope Database (IEDB).

Target: HLA-A*02:01
Assay: IEDB peptide-MHC binding, purified MHC/competitive/fluorescence; bounds were set here for any values at or beyond the usual limits of such assays
Conditions: source organism: Zaire ebolavirus
Recorded measurements of pIC50, one per entry
For clarity, pIC50 is expressed as the negative log10 of concentration in mol/L.

INSERT INTO measurements (sequence_entry, tested_target, measurement) VALUES
  ('GLFPQLSAI', 'HLA-A*02:01', 6.37),
  ('LGLITNTIA', 'HLA-A*02:01', 4.45),
  ('TQSRPIQNV', 'HLA-A*02:01', 4.84);

--- query ---
*Q* If you can, please state the reported pIC50 value of `NLTYVQLES` .
*A* 4.96

----------
Target: HLA-C*07:02
Assay: IEDB peptide-MHC binding, purified MHC/direct/fluorescence; filed as Kd, often an IC50 or EC50 that approximates it; bounds were set here for any values at or beyond the usual limits of such assays
Settings: source organism: Vaccinia virus
observed_property: pKd
For clarity, pKd is expressed as the negative log10 of concentration in mol/L.

*Q* If you can, please state the reported pKd value of `YRHKNYYAL` .
*A* 7.24

----------
Target: HLA-A*24:02
Assay: IEDB peptide-MHC binding, purified MHC/competitive/fluorescence; bounds were set here for any values at or beyond the usual limits of such assays
Conditions: source organism: Vaccinia virus WR
pIC50: −log10 of the molar value.
observed_property: pIC50

*Q* If you can, please state the reported pIC50 value of `ITCKAFGLY` .
*A* ≤ 4.07

----------
Target: HLA-A*02:01
Test: IEDB peptide-MHC binding, purified MHC/competitive/radioactivity; bounds were set here for any values at or beyond the usual limits of such assays
Conditions: source organism: Homo sapiens
observed_property: pIC50
For clarity, pIC50 is expressed as the negative log10 of concentration in mol/L.

*Q* If you can, please state the reported pIC50 value of `SLADTNSLAV` .
*A* 7.10

----------
Molecular target: HLA-B*45:06
Test: IEDB peptide-MHC binding, purified MHC/competitive/fluorescence; filed as Kd, often an IC50 or EC50 that approximates it; bounds were set here for any values at or beyond the usual limits of such assays
Conditions: source organism: dengue virus type 1
observed_property: Kd

*Q* If you can, please state the reported Kd value of `FTMRLLSPV` .
*A* ≥ 5 µM

----------
Recorded measurements of Kd, one per entry
Target: HLA-A*11:01
Assay: IEDB peptide-MHC binding, purified MHC/direct/fluorescence; filed as Kd, often an IC50 or EC50 that approximates it; bounds were set here for any values at or beyond the usual limits of such assays
Conditions: source organism: Yellow fever virus

INSERT INTO results (sequence_entry, tested_target, measurement) VALUES
  ('YFHKRDMRL', 'HLA-A*11:01', '≥ 20 µM');

--- query ---
*Q* Test system HLA-A*11:01; read-out Kd; what value for `EVRLATMLF` ?
*A* ≥ 20 µM

----------
Molecular target: HLA-A*31:01
Experiment: IEDB peptide-MHC binding, purified MHC/competitive/radioactivity; filed as Kd, often an IC50 or EC50 that approximates it; bounds were set here for any values at or beyond the usual limits of such assays
Conditions: source organism: Mammarenavirus guanaritoense
observed_property: pKd
For clarity, pKd is expressed as the negative log10 of concentration in mol/L.

*Q* If you can, please state the reported pKd value of `VTEFRRTAIH` .
*A* 4.97
